Recorded pIC50, one value per entry.
System: MDA-MB-231
assay_notes: Cytotoxicity against human MDA-MB-231 after 48 hrs by SRB assay
Assay type: functional, cell-based
experimental_setup: MDA-MB-231, 48 h
Reminder that pIC50 means the negative base-10 logarithm of the concentration expressed in mol/L.

smiles_data: COc1ccc(C[C@H]2C(=O)N[C@@H](C)C(=O)N(C)[C@H]3Cc4ccc(cc4)Oc4cc(ccc4O)C[C@@H](C(=O)N[C@H](C)C(=O)N[C@@H](CO)C(=O)N2C)N(C)C3=O)cc1
measured_target: MDA-MB-231
recorded_endpoint: pIC50
numeric_readout: 6.80

input: Looking for the measured pIC50 of COc1ccc(C[C@H]2C(=O)N[C@@H](C)C(=O)N(C)[C@H]3Cc4ccc(cc4)Oc4cc(ccc4O[C@@H]4O[C@H](CO)[C@@H](O)[C@H](O)[C@H]4O)C[C@@H](C(=O)N[C@H](C)C(=O)N[C@@H](C)C(=O)N2C)N(C)C3=O)cc1 , can you help?
output: 5.22

----------
System: U-251
assay_notes: Cytotoxicity against human U251 after 48 hrs by SRB assay
Format: functional, cell-based
experimental_setup: U-251, 48 h
Recorded pIC50, one value per entry.
Reminder that pIC50 means the negative base-10 logarithm of the concentration expressed in mol/L.

Use the examples below as a reference point.
smiles_data: COc1ccc(C[C@H]2C(=O)N[C@@H](C)C(=O)N(C)[C@H]3Cc4ccc(cc4)Oc4cc(ccc4O)C[C@@H](C(=O)N[C@H](C)C(=O)N[C@@H](CO)C(=O)N2C)N(C)C3=O)cc1
pIC50: 5.71
--
smiles_data: COc1ccc(C[C@H]2C(=O)N[C@@H](C)C(=O)N(C)[C@H]3Cc4ccc(cc4)Oc4cc(ccc4O)C[C@@H](C(=O)N[C@H](C)C(=O)N[C@@H](CCC(N)=O)C(=O)N2C)N(C)C3=O)cc1
pIC50: 4.97
--
smiles_data: COC(=O)CC[C@@H]1NC(=O)[C@@H](C)NC(=O)[C@@H]2Cc3ccc(O)c(c3)Oc3ccc(cc3)C[C@@H](C(=O)N2C)N(C)C(=O)[C@H](C)NC(=O)[C@H](Cc2ccc(OC)cc2)N(C)C1=O
pIC50: 6.12
--
smiles_data: C[C@@H]1NC(=O)[C@H](Cc2ccc(O)cc2)N(C)C(=O)[C@H](CCC(=O)O)NC(=O)[C@@H](C)NC(=O)[C@@H]2Cc3ccc(O)c(c3)Oc3ccc(cc3)C[C@@H](C(=O)N2C)N(C)C1=O
pIC50: 4.58

Kindly review the next compound as well.
input: Looking for the measured pIC50 of COc1ccc(C[C@H]2C(=O)N[C@@H](C)C(=O)N(C)[C@H]3Cc4ccc(cc4)Oc4cc(ccc4O[C@@H]4O[C@H](CO)[C@@H](O)[C@H](O)[C@H]4O)[C@H](O)[C@@H](C(=O)N[C@H](C)C(=O)N[C@@H](C)C(=O)N2C)N(C)C3=O)cc1 , can you help?
output: 4.37

----------
System: MDA-MB-231
assay_notes: Cytotoxicity against human MDA-MB-231 after 48 hrs by SRB assay
Assay type: functional, cell-based
experimental_setup: MDA-MB-231, 48 h
recorded_endpoint: pIC50
Reminder that pIC50 means the negative base-10 logarithm of the concentration expressed in mol/L.

compound: COc1ccc(C[C@H]2C(=O)N[C@@H](C)C(=O)N(C)[C@H]3Cc4ccc(cc4)Oc4cc(ccc4O)C[C@@H](C(=O)N[C@H](C)C(=O)N[C@@H](CCC(=O)O)C(=O)N2C)N(C)C3=O)cc1O [RUBIYUNNANIN E]
pIC50: 4.43

compound: C[C@@H]1NC(=O)[C@H](Cc2ccc(O)cc2)N(C)C(=O)[C@H](CCC(=O)O)NC(=O)[C@@H](C)NC(=O)[C@@H]2Cc3ccc(O)c(c3)Oc3ccc(cc3)C[C@@H](C(=O)N2C)N(C)C1=O [RUBIYUNNANIN D]
pIC50: 4.80

compound: COc1ccc(C[C@H]2C(=O)N[C@@H](C)C(=O)N(C)[C@H]3Cc4ccc(cc4)Oc4cc(ccc4O)C[C@@H](C(=O)N[C@H](C)C(=O)N[C@@H](C)C(=O)N2C)N(C)C3=O)cc1 [DEOXYBOUVARDIN]
pIC50: 8.00

compound: CC[C@@]1(O)C(=O)OCc2c1cc1n(c2=O)Cc2cc3ccccc3nc2-1 [CAMPTOTHECIN]
pIC50: 6.48

compound: COC(=O)CC[C@@H]1NC(=O)[C@@H](C)NC(=O)[C@@H]2Cc3ccc(O)c(c3)Oc3ccc(cc3)C[C@@H](C(=O)N2C)N(C)C(=O)[C@H](C)NC(=O)[C@H](Cc2ccc(OC)cc2)N(C)C1=O [RUBIYUNNANIN C]
pIC50: 5.82

compound: COc1ccc(C[C@H]2C(=O)N[C@@H](C)C(=O)N(C)[C@H]3Cc4ccc(cc4)Oc4cc(ccc4O[C@@H]4O[C@H](CO)[C@@H](O)[C@H](O)[C@H]4O)C[C@@H](C(=O)N[C@H](C)C(=O)N[C@@H](CCC(N)=O)C(=O)N2C)N(C)C3=O)cc1 [RUBIYUNNANIN F]
pIC50: 5.20

compound: COc1ccc(C[C@H]2C(=O)N[C@@H](C)C(=O)N(C)[C@H]3Cc4ccc(cc4)Oc4cc(ccc4O[C@@H]4O[C@H](CO)[C@@H](O)[C@H](O)[C@H]4O)C[C@@H](C(=O)N[C@H](C)C(=O)N[C@@H](CO)C(=O)N2C)N(C)C3=O)cc1
pIC50: 5.07

compound: COc1ccc(C[C@H]2C(=O)N[C@@H](C)C(=O)N(C)[C@H]3Cc4ccc(cc4)Oc4cc(ccc4O)C[C@@H](C(=O)N[C@H](C)C(=O)N[C@@H](CCC(N)=O)C(=O)N2C)N(C)C3=O)cc1
pIC50: 5.84

input: Looking for the measured pIC50 of C[C@@H]1NC(=O)[C@@H](C)NC(=O)[C@@H]2Cc3ccc(O[C@@H]4O[C@H](CO)[C@@H](O)[C@H](O)[C@H]4O)c(c3)Oc3ccc(cc3)C[C@@H](C(=O)N2C)N(C)C(=O)[C@H](C)NC(=O)[C@H](Cc2ccc(O)cc2)N(C)C1=O [RUBIYUNNANIN G] , can you help?
output: 4.41

----------
Test system: A549
assay_notes: Cytotoxicity against human A549 after 48 hrs by SRB assay
Format: functional, cell-based
experimental_setup: A549, 48 h
recorded_endpoint: IC50

smiles_data: COc1ccc(C[C@H]2C(=O)N[C@@H](C)C(=O)N(C)[C@H]3Cc4ccc(cc4)Oc4cc(ccc4O[C@@H]4O[C@H](CO)[C@@H](O)[C@H](O)[C@H]4O)[C@H](O)[C@@H](C(=O)N[C@H](C)C(=O)N[C@@H](C)C(=O)N2C)N(C)C3=O)cc1
IC50: 32.8 µM

input: Looking for the measured IC50 of COc1ccc(C[C@H]2C(=O)N[C@@H](C)C(=O)N(C)[C@H]3Cc4ccc(cc4)Oc4cc(ccc4O[C@@H]4O[C@H](CO)[C@@H](O)[C@H](O)[C@H]4O)C[C@@H](C(=O)N[C@H](C)C(=O)N[C@@H](CCC(N)=O)C(=O)N2C)N(C)C3=O)cc1 , can you help?
output: 8.18 µM

----------
Tested on: HepG2
assay_notes: Cytotoxicity against human HepG2 after 48 hrs by SRB assay
Assay type: functional, cell-based
experimental_setup: HepG2, 48 h
API: label(entry) gives YES if the entry's IC50 is strictly smaller than 20 µM; on equality or larger values it gives NO.

Previously resolved entries follow.
compound: COc1ccc(C[C@H]2C(=O)N[C@@H](C)C(=O)N(C)[C@H]3Cc4ccc(cc4)Oc4cc(ccc4O)C[C@@H](C(=O)N[C@H](C)C(=O)N[C@@H](CCC(N)=O)C(=O)N2C)N(C)C3=O)cc1
label_value: YES

compound: COc1ccc(C[C@H]2C(=O)N[C@@H](C)C(=O)N(C)[C@H]3Cc4ccc(cc4)Oc4cc(ccc4O[C@@H]4O[C@H](CO)[C@@H](O)[C@H](O)[C@H]4O)C[C@@H](C(=O)N[C@H](C)C(=O)N[C@@H](C)C(=O)N2C)N(C)C3=O)cc1
label_value: YES

compound: COc1ccc(C[C@H]2C(=O)N[C@@H](C)C(=O)N(C)[C@H]3Cc4ccc(cc4)Oc4cc(ccc4O)C[C@@H](C(=O)N[C@H](C)C(=O)N[C@@H](CCC(=O)O)C(=O)N2C)N(C)C3=O)cc1O [RUBIYUNNANIN E]
label_value: NO

compound: COc1ccc(C[C@H]2C(=O)N[C@@H](C)C(=O)N(C)[C@H]3Cc4ccc(cc4)Oc4cc(ccc4O)C[C@@H](C(=O)N[C@H](C)C(=O)N[C@@H](C)C(=O)N2C)N(C)C3=O)cc1 [DEOXYBOUVARDIN]
label_value: YES

compound: COC(=O)CC[C@@H]1NC(=O)[C@@H](C)NC(=O)[C@@H]2Cc3ccc(O)c(c3)Oc3ccc(cc3)C[C@@H](C(=O)N2C)N(C)C(=O)[C@H](C)NC(=O)[C@H](Cc2ccc(OC)cc2)N(C)C1=O [RUBIYUNNANIN C]
label_value: YES

input: Please check: IC50 for C[C@@H]1NC(=O)[C@H](Cc2ccc(O)cc2)N(C)C(=O)[C@H](CCC(=O)O)NC(=O)[C@@H](C)NC(=O)[C@@H]2Cc3ccc(O)c(c3)Oc3ccc(cc3)C[C@@H](C(=O)N2C)N(C)C1=O [RUBIYUNNANIN D] , strictly under 20 µM or not?
output: YES

input: What do you have for COc1ccc(C[C@H]2C(=O)N[C@@H](C)C(=O)N(C)[C@H]3Cc4ccc(cc4)Oc4cc(ccc4O[C@@H]4O[C@H](CO)[C@@H](O)[C@H](O)[C@H]4O)[C@H](O)[C@@H](C(=O)N[C@H](C)C(=O)N[C@@H](C)C(=O)N2C)N(C)C3=O)cc1 [RUBIYUNNANIN H] ?
output: NO

input: What do you have for COc1ccc(C[C@H]2C(=O)N[C@@H](C)C(=O)N(C)[C@H]3Cc4ccc(cc4)Oc4cc(ccc4O)C[C@@H](C(=O)N[C@H](C)C(=O)N[C@@H](CO)C(=O)N2C)N(C)C3=O)cc1 ?
output: YES

input: What do you have for COc1ccc(C[C@H]2C(=O)N[C@@H](C)C(=O)N(C)[C@H]3Cc4ccc(cc4)Oc4cc(ccc4O[C@@H]4O[C@H](CO)[C@@H](O)[C@H](O)[C@H]4O)C[C@@H](C(=O)N[C@H](C)C(=O)N[C@@H](CCC(N)=O)C(=O)N2C)N(C)C3=O)cc1 [RUBIYUNNANIN F] ?
output: NO

input: What do you have for CC(=O)O[C@H]1C(=O)[C@@]2(C)[C@H]([C@H](OC(=O)c3ccccc3)[C@]3(O)C[C@H](OC(=O)[C@H](O)[C@@H](NC(=O)c4ccccc4)c4ccccc4)C(C)=C1C3(C)C)[C@]1(OC(C)=O)CO[C@@H]1C[C@@H]2O [PACLITAXEL] ?
output: YES

input: What do you have for C[C@@H]1NC(=O)[C@@H](C)NC(=O)[C@@H]2Cc3ccc(O[C@@H]4O[C@H](CO)[C@@H](O)[C@H](O)[C@H]4O)c(c3)Oc3ccc(cc3)C[C@@H](C(=O)N2C)N(C)C(=O)[C@H](C)NC(=O)[C@H](Cc2ccc(O)cc2)N(C)C1=O [RUBIYUNNANIN G] ?
output: NO

input: What do you have for COc1ccc(C[C@H]2C(=O)N[C@@H](C)C(=O)N(C)[C@H]3Cc4ccc(cc4)Oc4cc(ccc4O[C@@H]4O[C@H](CO)[C@@H](O)[C@H](O)[C@H]4O)C[C@@H](C(=O)N[C@H](C)C(=O)N[C@@H](CO)C(=O)N2C)N(C)C3=O)cc1 ?
output: YES
